Here, each record is paired with measured EC50 data.
tested on: KARN cells (Jurkat 2C4); test: cells; format: cell-based; conditions: Homo sapiens, Jurkat, read-out: Karn EC50 (nM) 5% NHS, 5% normal human serum; luciferase induction, 100% = 2 μM SAHA
Output spec: scalar in nM, unitless text.

Example cases with answers are listed next.
Prompt line: For the compound CCC(=O)CCCCC[C@H](NC(=O)CC1CC2(C1)CN(C)C2)c1ncc(-c2ccccc2)[nH]1 [Compound 307] , what EC50 is on record?
Response line: 2570

Prompt line: Consider the compound shown here: CCC(=O)CCCCC[C@H](NC(=O)[C@@H]1C[C@@]12CCN(C)C2)c1ncc(-c2cc3ccccc3nc2OC)[nH]1 [Compound 330] What is its recorded EC50?
Response line: 1150

Prompt line: Requested field: EC50. Item: CCC(=O)CCCCC[C@H](NC(=O)[C@H]1CC12CCN(C)CC2)c1ncc(-c2cn(C)c3ccccc23)[nH]1 [Compound 264]
Response line: 143

Prompt line: Entry CCC(=O)CCCCC[C@H](NC(=O)[C@H]1CC12CCN(C)CC2)c1nnc(-c2cc3ccccc3nc2OC)o1 [Compound 306] : reported EC50 = ?
Response line: 691

Prompt line: Dear colleague, I am looking for the recorded EC50 of the following compound: CCC(=O)CCCCC[C@H](NC(=O)[C@H]1CC12CCN(CC(F)(F)F)CC2)c1ncc(-c2cc3ccccc3nc2OC)[nH]1 [Compound 333]
Response line: 719

Prompt line: Request the reported EC50 associated with CCC(=O)CCCCC[C@H](NC(=O)[C@@H]1CC12CCN(C)CC2)c1nnc(-c2cc3ccccc3nc2OC)o1 [Compound 305]
Response line: 3090

Prompt line: For the compound shown here, CCC(=O)CCCCC[C@H](NC(=O)[C@H]1CC12CCN(C)CC2)c1ncc(-c2cnc(OC)nc2)[nH]1 [Compound 255] , give the reported EC50.
Response line: 14800

Prompt line: What does the record list as EC50 for CCC(=O)CCCCC[C@@H](NC(=O)C1CCC2(CC1)CN(C)C2)c1ncc(-c2ccccc2)[nH]1 [Compound 310] ?
Response line: 1920

Prompt line: What EC50 value was documented for this compound, CCC(=O)CCCCC[C@H](NC(=O)CCN1C(=O)C(CC)=NC12CCOCC2)c1ncc(-c2ccccc2)[nH]1 [Compound 384] ?
Response line: 2410

Prompt line: Recorded EC50 of CCC(=O)CCCCC[C@H](NC(=O)C1CC2(CCN(CC)CC2)C1)c1ncc(-c2cc3ccccc3nc2OC)[nH]1 [Compound 278] , please.
Response line: 1000

Others:
Prompt line: For the compound shown here, CCC(=O)CCCCC[C@H](NC(=O)C1=NOC2(CCN(CC3CC3)CC2)C1)c1ncc(-c2cc3ccc(=O)n(C)c3cc2F)o1 [Compound 387] , give the reported EC50.
Response line: 1700

Prompt line: Fill in the blank: the reported EC50 of CCC(=O)CCCCC[C@H](NC(=O)C1NC(=O)CC12CN(C)C2)c1ncc(-c2cc3ccccc3nc2OC)[nH]1 (stereo partly drawn) [Compound 317] is ____.
Response line: 1720

====

Listing: log10(IC50) of selected compounds
target: Recombinant human HDAC3/SMRT heterodimer (Homo sapiens); construct: FLAG (C); made in house; test: Human HDAC enzyme inhibitor Fluor-de-Lys assay, HDAC3/SMRT; format: biochemical
Sequence (O15379 whole entry): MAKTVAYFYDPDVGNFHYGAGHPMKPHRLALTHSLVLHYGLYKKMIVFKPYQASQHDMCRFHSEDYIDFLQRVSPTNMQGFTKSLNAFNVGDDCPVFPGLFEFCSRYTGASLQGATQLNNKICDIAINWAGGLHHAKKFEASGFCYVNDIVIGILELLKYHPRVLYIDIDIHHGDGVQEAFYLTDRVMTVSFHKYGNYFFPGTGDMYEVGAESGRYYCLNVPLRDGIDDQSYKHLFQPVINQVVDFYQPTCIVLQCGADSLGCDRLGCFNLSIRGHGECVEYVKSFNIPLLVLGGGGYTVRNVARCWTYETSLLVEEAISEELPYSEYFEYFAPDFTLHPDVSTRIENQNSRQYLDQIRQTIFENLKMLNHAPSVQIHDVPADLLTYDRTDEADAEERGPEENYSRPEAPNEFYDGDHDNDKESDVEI
Sequence (Q9Y618 1-899 partner limits assumed): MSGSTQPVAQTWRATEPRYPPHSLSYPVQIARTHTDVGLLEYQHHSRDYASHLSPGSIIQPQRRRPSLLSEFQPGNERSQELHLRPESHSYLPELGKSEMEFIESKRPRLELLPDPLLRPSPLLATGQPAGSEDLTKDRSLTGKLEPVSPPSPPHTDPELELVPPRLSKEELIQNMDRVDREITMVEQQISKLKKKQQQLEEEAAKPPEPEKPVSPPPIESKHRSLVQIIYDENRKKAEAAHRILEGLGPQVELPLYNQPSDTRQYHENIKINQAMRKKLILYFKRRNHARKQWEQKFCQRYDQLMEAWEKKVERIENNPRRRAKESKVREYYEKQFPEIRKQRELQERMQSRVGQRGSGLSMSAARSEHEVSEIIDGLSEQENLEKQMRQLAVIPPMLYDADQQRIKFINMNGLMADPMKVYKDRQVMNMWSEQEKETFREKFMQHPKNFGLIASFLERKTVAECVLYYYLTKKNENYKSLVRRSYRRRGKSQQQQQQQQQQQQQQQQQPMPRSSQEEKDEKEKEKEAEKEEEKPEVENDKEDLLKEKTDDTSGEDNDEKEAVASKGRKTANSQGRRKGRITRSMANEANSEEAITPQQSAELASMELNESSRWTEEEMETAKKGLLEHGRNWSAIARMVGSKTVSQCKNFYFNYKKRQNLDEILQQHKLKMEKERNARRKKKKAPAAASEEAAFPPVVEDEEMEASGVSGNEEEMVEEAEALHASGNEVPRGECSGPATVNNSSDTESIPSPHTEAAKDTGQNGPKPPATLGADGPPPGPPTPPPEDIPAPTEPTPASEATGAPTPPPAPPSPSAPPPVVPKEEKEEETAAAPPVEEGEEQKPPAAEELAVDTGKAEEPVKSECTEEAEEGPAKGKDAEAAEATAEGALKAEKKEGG
The common logarithm of IC50 in nM is what is listed.

Examples from the recorded data:
Prompt line: Sample CCC(=O)CCCCC[C@H](NC(=O)[C@H]1CC12CCN(CC)CC2)c1ncc(-c2ccc3c(=O)n(C4CC4)ccc3c2)[nH]1 — what was its log10(IC50)?
Response line: -0.60

Prompt line: Reported log10(IC50) for CCC(=O)CCCCC[C@H](NC(=O)[C@H]1CC12CCN(C)CC2)c1ncc(-c2ccc3c(=O)n(C)ccc3c2)o1 : what is it?
Response line: 0.67

Prompt line: So what's the measured log10(IC50) for this one? COc1cc2nc(C)ccc2cc1-c1cnc([C@H](CCCCCC(=O)CC2CC2)NC(=O)[C@H]2CC23CCN(C)CC3)o1
Response line: 0.23

Prompt line: Dear colleague, I am looking for the recorded log10(IC50) of the following compound: CCC(=O)CCCCC[C@H](NC(=O)[C@H]1CC12CCN(CC)CC2)c1ncc(-c2ccc(-n3cccn3)cc2)o1
Response line: 0.60

Prompt line: Look up log10(IC50) for this compound: CCC(=O)CCCCC[C@H](NC(=O)[C@H]1CC12CCN(C)CC2)c1ncc(-c2ccc3nc(C4CC4)oc3c2)[nH]1
Response line: 0.44

Prompt line: Fill in: log10(IC50) of CCC(=O)CCCCC[C@H](NC(=O)[C@H]1CC[C@]2(CC1)OC(=O)c1cccnc12)c1ncc(-c2ccc3nc(C4CC4)ccc3c2)o1 is ___
Response line: 0.88

Prompt line: Which log10(IC50) value is on record for C=CCN1CCC2(CC1)C[C@@H]2C(=O)N[C@@H](CCCCCC(=O)CC)c1ncc(-c2ccc3c(c2)C2CCC3N2CC=C)[nH]1 (stereo partly shown) ?
Response line: 1.24

Prompt line: Would you kindly share the measured log10(IC50) for CN1CCC2(CC1)C[C@@H]2C(=O)N[C@@H](CCCCCC(=O)CC(F)(F)F)c1ncc(-c2ccc(F)cc2)[nH]1 ?
Response line: 0.93

Please turn your attention to the following entry.
Prompt line: Please give the measured log10(IC50) for this compound: CCC(=O)CCCCC[C@H](NC(=O)C1CC12CC1CCC(C2)N1C)c1ncc(-c2ccc3ncccc3c2)[nH]1 (single isomer, unassigned)
Response line: -0.49

====

Catalogue of pIC50 readings, one per entry.
molecular target: UniProtKB Q9UBN7; assay: Human HDAC enzyme inhibitor Fluor-de-Lys assay, HDAC6; type: biochemical
pIC50: −log10 of the molar value.

Prompt line: Please look up its pIC50: CCC(=O)CCCCC[C@H](NC(=O)C1=NOC2(CCN(CC3CC3)CC2)C1)c1ncc(-c2cc3ccc(C)nc3cc2OC)[nH]1
Response line: < 6.05

Prompt line: So what's the measured pIC50 for this one? CCC(=O)CCCCC[C@H](NC(=O)[C@H]1CC12CCN(CC)CC2)c1ncc(-c2ccc3c(cnn3C3CC3)c2)[nH]1
Response line: 5.53

Prompt line: Given the entry CCC(=O)CCCCC[C@H](NCCN(C)C)c1ncc(-c2cc3ccc(C)nc3cc2OC)[nH]1 , report its measured pIC50.
Response line: < 6.05

====

target: HDAC6 (Homo sapiens); experiment: Human HDAC enzyme inhibitor Fluor-de-Lys assay, HDAC6; assay type: biochemical
Sequence (Q9UBN7 whole entry): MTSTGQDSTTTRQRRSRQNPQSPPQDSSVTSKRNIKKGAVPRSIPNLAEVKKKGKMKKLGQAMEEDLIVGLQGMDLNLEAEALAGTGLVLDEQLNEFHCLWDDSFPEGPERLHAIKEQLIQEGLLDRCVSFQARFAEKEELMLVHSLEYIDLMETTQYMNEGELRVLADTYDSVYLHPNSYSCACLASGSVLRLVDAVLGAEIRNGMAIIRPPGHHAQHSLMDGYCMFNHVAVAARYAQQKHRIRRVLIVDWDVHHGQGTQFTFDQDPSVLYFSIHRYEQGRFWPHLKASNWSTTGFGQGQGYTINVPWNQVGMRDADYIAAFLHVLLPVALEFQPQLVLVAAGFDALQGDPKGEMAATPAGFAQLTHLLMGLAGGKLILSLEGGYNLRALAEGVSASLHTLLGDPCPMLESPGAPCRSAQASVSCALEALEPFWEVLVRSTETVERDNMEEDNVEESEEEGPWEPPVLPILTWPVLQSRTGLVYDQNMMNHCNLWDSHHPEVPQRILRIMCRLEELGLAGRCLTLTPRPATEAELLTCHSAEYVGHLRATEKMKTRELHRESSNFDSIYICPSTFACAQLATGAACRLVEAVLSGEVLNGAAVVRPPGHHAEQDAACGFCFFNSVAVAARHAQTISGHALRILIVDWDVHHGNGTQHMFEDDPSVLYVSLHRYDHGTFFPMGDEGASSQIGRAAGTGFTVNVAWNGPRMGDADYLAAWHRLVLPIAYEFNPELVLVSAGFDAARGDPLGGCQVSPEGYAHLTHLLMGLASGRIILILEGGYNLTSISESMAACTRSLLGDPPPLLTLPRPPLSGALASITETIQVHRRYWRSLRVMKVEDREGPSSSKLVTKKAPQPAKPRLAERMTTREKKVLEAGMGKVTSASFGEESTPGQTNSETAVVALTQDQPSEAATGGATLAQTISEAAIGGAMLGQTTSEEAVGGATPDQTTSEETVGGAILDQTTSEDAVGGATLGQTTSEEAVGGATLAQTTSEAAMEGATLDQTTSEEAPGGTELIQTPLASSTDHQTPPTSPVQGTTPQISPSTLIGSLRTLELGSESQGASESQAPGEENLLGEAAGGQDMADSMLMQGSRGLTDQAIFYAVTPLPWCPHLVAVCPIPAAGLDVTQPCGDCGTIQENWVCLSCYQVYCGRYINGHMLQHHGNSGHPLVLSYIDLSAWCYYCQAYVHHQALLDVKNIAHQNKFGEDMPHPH
PROPERTY_NAME: IC50

Consider the reported IC50 for these compounds:
Prompt line: Which IC50 is listed for CCC(=O)CCCCC[C@H](NC(=O)[C@H]1CC[C@]2(CC1)OC(=O)c1ncccc12)c1ncc(-c2ccc3nc(C4CC4)ccc3c2)o1 ?
Response line: > 45000 nM

Prompt line: Look at this compound and give its reported IC50. CCC(=O)CCCCC[C@H](NC(=O)[C@H]1CC12CCN(C)CC2)c1ncc(-c2cc3ccc(-n4cccn4)cc3nc2OC)[nH]1
Response line: > 1500 nM

Now consider a different compound.
Prompt line: Look up IC50: CCC(=O)CCCCC[C@H](NC(=O)[C@H]1CC12CCN(C)CC2)c1ncc(-c2cc(OC)ncc2F)o1
Response line: > 900 nM

====

target: Recombinant human HDAC8 (Homo sapiens, UniProt Q9BY41); construct: purchased Enzo Life Sciences BML-SE145-0100; test: Human HDAC enzyme inhibitor Fluor-de-Lys assay, HDAC8; format: biochemical; conditions: recombinant human HDAC8, Fluor-de-Lys assay
Sequence (Q9BY41 whole entry): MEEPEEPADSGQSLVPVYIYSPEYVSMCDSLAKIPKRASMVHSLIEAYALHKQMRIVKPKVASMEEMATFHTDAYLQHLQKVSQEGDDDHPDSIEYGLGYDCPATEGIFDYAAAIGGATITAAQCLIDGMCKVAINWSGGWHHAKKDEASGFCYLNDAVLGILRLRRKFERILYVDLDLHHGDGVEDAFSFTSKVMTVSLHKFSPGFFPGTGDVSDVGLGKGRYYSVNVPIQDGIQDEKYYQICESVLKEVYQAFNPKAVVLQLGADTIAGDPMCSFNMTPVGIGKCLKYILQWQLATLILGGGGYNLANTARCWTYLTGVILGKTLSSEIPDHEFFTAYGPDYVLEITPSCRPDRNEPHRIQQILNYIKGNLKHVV
pIC50: −log10 of the molar value.
PROPERTY_NAME: pIC50

Check out these entries, answers already filled in.
Prompt line: State the recorded pIC50 for this entry: CCC(=O)CCCCC[C@H](NC(=O)[C@H]1CC12CCN(C)CC2)c1nnc(-c2cc3ccccc3nc2OC)o1
Response line: < 4.35

Prompt line: Look at this molecule and give its reported pIC50. CCC(=O)CCCCC[C@H](NC(=O)[C@H]1CC12CN(C)C2)c1ncc(-c2cc3ccc(C)nc3cc2OC)o1 (single isomer, unassigned)
Response line: < 6.05

Prompt line: May I ask what pIC50 has been recorded for CCC(=O)CCCCC[C@H](N)c1ncc(-c2cc3ccc(=O)n(C)c3cc2OC)o1 ?
Response line: < 6.05

Prompt line: I would be grateful if you could share the reported pIC50 for CCC(=O)CCCCC[C@H](NC(=O)[C@H]1CC12CCN(CC1CC1)CC2)c1ncc(-c2ccc3nc(C)ccc3c2)[nH]1 .
Response line: < 6.05

Prompt line: Need pIC50 of CCC(=O)CCCCC[C@H](NC(=O)[C@H]1CC12CCN(C)CC2)c1ncc(-c2cc3ocnc3cc2F)o1 , thanks.
Response line: < 6.05

Next, consider the following molecule.
Prompt line: May I ask what pIC50 has been recorded for CCC(=O)CCCCC[C@H](NC(=O)[C@H]1CC12CCN(C)CC2)c1ncc(-c2ccc(-n3nc(C)cc3C)cc2)[nH]1 ?
Response line: < 4.82
